# Test system: 439559-082-T-J2-PDC spheroid viability
# assay_overview: Anticancer human tumor 439559-082-T-J2-PDC patient-derived colon adenocarcinoma cell line growth inhibition [POLQ]
# assay_setup: second compound 3.16 µM; first compound 1 µM; stronger effect = lower value; spheroids with HUVEC and MSC
Exercise: for every item that follows, state its recorded viability, T/C.
Return type: number; implicit unit %.

Request - read-out viability, T/C | tested on 439559-082-T-J2-PDC spheroid viability | molecule CC1COCCN1c1cc(-c2ccnn2C)c2ccnc(-c3ccn[nH]3)c2n1 (stereo not given) + Nc1ccc(C#CCN(C(=O)Cc2ncc(C(F)(F)F)cc2C(F)(F)F)c2ccc(F)cc2)nn1
43.1

Request - read-out viability, T/C | tested on 439559-082-T-J2-PDC spheroid viability | molecule COc1cccc(OCCCN)c1-c1cc(Nc2cnc(C#N)cn2)n[nH]1 + Nc1ccc(C#CCN(C(=O)Cc2ncc(C(F)(F)F)cc2C(F)(F)F)c2ccc(F)cc2)nn1
20.4

Request - read-out viability, T/C | tested on 439559-082-T-J2-PDC spheroid viability | molecule CCc1c2c(nc3ccc(O)cc13)-c1cc3c(c(=O)n1C2)COC(=O)[C@]3(O)CC + COC1C(OC(N)=O)C(O)C(Oc2ccc3c(O)c(NC(=O)c4ccc(O)c(CC=C(C)C)c4)c(=O)oc3c2C)OC1(C)C
36.8

Request - read-out viability, T/C | tested on 439559-082-T-J2-PDC spheroid viability | molecule CCCS(=O)(=O)Nc1ccc(F)c(C(=O)c2c[nH]c3ncc(-c4ccc(Cl)cc4)cc23)c1F + COC1C(OC(N)=O)C(O)C(Oc2ccc3c(O)c(NC(=O)c4ccc(O)c(CC=C(C)C)c4)c(=O)oc3c2C)OC1(C)C
95.4

Request - read-out viability, T/C | tested on 439559-082-T-J2-PDC spheroid viability | molecule CCc1c2c(nc3ccc(O)cc13)-c1cc3c(c(=O)n1C2)COC(=O)[C@]3(O)CC + Nc1ccc(C#CCN(C(=O)Cc2ncc(C(F)(F)F)cc2C(F)(F)F)c2ccc(F)cc2)nn1
46.5

* * *

# Tested on: 439559-082-T-J2-PDC spheroid viability
# assay_overview: Anticancer human tumor 439559-082-T-J2-PDC cell line growth inhibition [POLQ];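 note: spheroids exposed to compounds for seven days before readout; 100% = DMSO vehicle control viability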
# assay_setup: second compound 1 µM; first compound 3.16 µM; stronger effect = lower value; spheroids with HUVEC and MSC
measurement_kind: viability, T/C (%)
Return type: number; implicit unit %.

Request - read-out viability, T/C | tested on 439559-082-T-J2-PDC spheroid viability | molecule C=CC(=O)N1CCN(c2nc(=O)n(-c3c(C)ccnc3C(C)C)c3nc(-c4c(O)cccc4F)c(F)cc23)C(C)C1 (stereo not given) + COC1C(OC(N)=O)C(O)C(Oc2ccc3c(O)c(NC(=O)c4ccc(O)c(CC=C(C)C)c4)c(=O)oc3c2C)OC1(C)C
109

Request - read-out viability, T/C | tested on 439559-082-T-J2-PDC spheroid viability | molecule O=C(Nc1ccc(O)c(NS(=O)(=O)c2ccc(F)cc2)c1)c1ccc(-c2ccccc2)cc1 + Cc1cccc(N(C)C(=O)C2C(O)CCN2c2nc(C)cc(C(F)(F)F)c2C#N)c1
101

Request - read-out viability, T/C | tested on 439559-082-T-J2-PDC spheroid viability | molecule COc1cccc2c1C(=O)c1c(O)c3c(c(O)c1C2=O)CC(O)(C(=O)CO)CC3OC1CC(N)C(O)C(C)O1 (stereo not given) + Nc1ccc(C#CCN(C(=O)Cc2ncc(C(F)(F)F)cc2C(F)(F)F)c2ccc(F)cc2)nn1
57.2

Request - read-out viability, T/C | tested on 439559-082-T-J2-PDC spheroid viability | molecule COc1ccc([C@@H](O)c2cc(-c3ncnc4cc(N5CCOCC5)ccc34)c(F)cc2Cl)nn1 + COC1C(OC(N)=O)C(O)C(Oc2ccc3c(O)c(NC(=O)c4ccc(O)c(CC=C(C)C)c4)c(=O)oc3c2C)OC1(C)C
86.5

Request - read-out viability, T/C | tested on 439559-082-T-J2-PDC spheroid viability | molecule O=C(c1cc(Cc2n[nH]c(=O)c3ccccc23)ccc1F)N1CCN(C(=O)C2CC2)CC1 + Cc1cccc(N(C)C(=O)C2C(O)CCN2c2nc(C)cc(C(F)(F)F)c2C#N)c1
98.8

* * *

# Test system: 439559-082-T-J2-PDC spheroid viability
# assay_overview: Anticancer human tumor 439559-082-T-J2-PDC cell line growth inhibition [POLQ];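 note: spheroids exposed to compounds for seven days before readout; 100% = DMSO vehicle control viability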
# assay_setup: second compound 0.1 µM; first compound 0.316 µM; stronger effect = lower value; spheroids with HUVEC and MSC
Cut-off 90% on viability, T/C: below means Met, at or above means Not met.

Is 90% strictly greater than the compound's reported viability, T/C? compound: O=C(Nc1ccc(O)c(NS(=O)(=O)c2ccc(F)cc2)c1)c1ccc(-c2ccccc2)cc1 + Nc1ccc(C#CCN(C(=O)Cc2ncc(C(F)(F)F)cc2C(F)(F)F)c2ccc(F)cc2)nn1
Not met

Is 90% strictly greater than the compound's reported viability, T/C? compound: C#Cc1c(F)ccc2cc(O)cc(-c3ncc4c(N5CC6CCC(C5)N6)nc(OCC56CCCN5CC(F)C6)nc4c3F)c12 (stereo not given) + COC1C(OC(N)=O)C(O)C(Oc2ccc3c(O)c(NC(=O)c4ccc(O)c(CC=C(C)C)c4)c(=O)oc3c2C)OC1(C)C
Met

Is 90% strictly greater than the compound's reported viability, T/C? compound: COc1cc2cc(C(=O)CCC(=O)O)sc2cc1OC + Cc1cccc(N(C)C(=O)C2C(O)CCN2c2nc(C)cc(C(F)(F)F)c2C#N)c1
Not met

Is 90% strictly greater than the compound's reported viability, T/C? compound: CNCc1ccc(-c2[nH]c3cc(F)cc4c3c2CCNC4=O)cc1 + Cc1cccc(N(C)C(=O)C2C(O)CCN2c2nc(C)cc(C(F)(F)F)c2C#N)c1
Not met

* * *

Exercise: for every item that follows, state its recorded viability, T/C.
# System: 439559-082-T-J2-PDC spheroid viability
# assay_overview: Anticancer human tumor 439559-082-T-J2-PDC cell line growth inhibition [POLQ];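 note: spheroids exposed to compounds for seven days before readout; 100% = DMSO vehicle control viability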
# assay_setup: second compound 10 µM; first compound 0.1 µM; stronger effect = lower value; spheroids with HUVEC and MSC
Return type: number; implicit unit %.

Request - read-out viability, T/C | tested on 439559-082-T-J2-PDC spheroid viability | compound CC1COCCN1c1cc(C2(S(C)(=N)=O)CC2)nc(-c2ccnc3[nH]ccc23)n1 (stereo not given) + Cc1cccc(N(C)C(=O)C2C(O)CCN2c2nc(C)cc(C(F)(F)F)c2C#N)c1
89.6

Request - read-out viability, T/C | tested on 439559-082-T-J2-PDC spheroid viability | compound Nc1ccn(C2OC(CO)C(O)C2(F)F)c(=O)n1 (stereo not given) + COC1C(OC(N)=O)C(O)C(Oc2ccc3c(O)c(NC(=O)c4ccc(O)c(CC=C(C)C)c4)c(=O)oc3c2C)OC1(C)C
70

Request - read-out viability, T/C | tested on 439559-082-T-J2-PDC spheroid viability | compound C=CCn1c(=O)c2cnc(Nc3ccc(N4CCN(C)CC4)cc3)nc2n1-c1cccc(C(C)(C)O)n1 + COC1C(OC(N)=O)C(O)C(Oc2ccc3c(O)c(NC(=O)c4ccc(O)c(CC=C(C)C)c4)c(=O)oc3c2C)OC1(C)C
109

Request - read-out viability, T/C | tested on 439559-082-T-J2-PDC spheroid viability | compound CCc1cc2c(N3CCc4c(cc(Cn5ccnc5)cc4-c4cn(C)nc4C(F)(F)F)C3=O)cc(C)nc2c(OC)n1 + COC1C(OC(N)=O)C(O)C(Oc2ccc3c(O)c(NC(=O)c4ccc(O)c(CC=C(C)C)c4)c(=O)oc3c2C)OC1(C)C
94.4

Request - read-out viability, T/C | tested on 439559-082-T-J2-PDC spheroid viability | compound CC(C)n1c(=O)n(C)c2cnc3cc(F)c(-c4ccc(OCCCN5CCCCC5)nc4)cc3c21 + Cc1cccc(N(C)C(=O)C2C(O)CCN2c2nc(C)cc(C(F)(F)F)c2C#N)c1
93.6

* * *

# Tested on: 439559-082-T-J2-PDC spheroid viability
# assay_overview: Anticancer human tumor 439559-082-T-J2-PDC cell line growth inhibition [POLQ];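 note: spheroids exposed to compounds for seven days before readout; 100% = DMSO vehicle control viability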
# assay_setup: second compound 0.1 µM; first compound 0.316 µM; stronger effect = lower value; spheroids with HUVEC and MSC
measurement_kind: viability, T/C (%)
Return type: number; implicit unit %.

I'd like to know its viability, T/C. The compound in question is Nc1ccn(C2OC(CO)C(O)C2(F)F)c(=O)n1 (stereo not given) + COC1C(OC(N)=O)C(O)C(Oc2ccc3c(O)c(NC(=O)c4ccc(O)c(CC=C(C)C)c4)c(=O)oc3c2C)OC1(C)C
54.4

I'd like to know its viability, T/C. The compound in question is CC1COCCN1c1cc(C2(S(C)(=N)=O)CC2)nc(-c2ccnc3[nH]ccc23)n1 (stereo not given) + Cc1cccc(N(C)C(=O)C2C(O)CCN2c2nc(C)cc(C(F)(F)F)c2C#N)c1
97.9

I'd like to know its viability, T/C. The compound in question is CCc1c2c(nc3ccc(O)cc13)-c1cc3c(c(=O)n1C2)COC(=O)[C@]3(O)CC + Cc1cccc(N(C)C(=O)C2C(O)CCN2c2nc(C)cc(C(F)(F)F)c2C#N)c1
65.7

I'd like to know its viability, T/C. The compound in question is CNCc1ccc(-c2[nH]c3cc(F)cc4c3c2CCNC4=O)cc1 + COC1C(OC(N)=O)C(O)C(Oc2ccc3c(O)c(NC(=O)c4ccc(O)c(CC=C(C)C)c4)c(=O)oc3c2C)OC1(C)C
91.7

I'd like to know its viability, T/C. The compound in question is COc1cccc2c1C(=O)c1c(O)c3c(c(O)c1C2=O)CC(O)(C(=O)CO)CC3OC1CC(N)C(O)C(C)O1 (stereo not given) + Cc1cccc(N(C)C(=O)C2C(O)CCN2c2nc(C)cc(C(F)(F)F)c2C#N)c1
80.7
